Listing of entries alongside the reported PPB.
# System: Plasma
# method description: Protein binding in rat plasma
# Assay type: ADME, cell-free

Could you please provide reported PPB for O=C(Nc1cc(F)cc(F)c1)N1CCC2(CC1)C(=O)N(c1cccc(Cl)c1)C2c1ccccn1 (stereo in doubt; 44b) ? Thanks!
99.5%

----------
Listing of entries alongside the reported concentration.
# System: Rattus norvegicus
# method description: Plasma concentration in SNL rat at 100 mg/kg, po
# Assay type: ADME, organism-based
# Parameters: dose 100 mg/kg, route oral
# study conditions: in vivo
Answer with a number only, understood to be in µM.

- compound: "O=C(Nc1cc(F)cc(F)c1)N1CCC2(CC1)C(=O)N(c1ccc(F)c(Cl)c1)C2c1ccccn1 (stereo in doubt; 39a)"
  reported: 3.4

Please turn your attention to the following entry.
Could you please provide reported concentration for O=C1N(c2ccc(F)c(Cl)c2)C(c2ccccn2)C12CCN(c1nc3cc(F)c(C(F)(F)F)cc3[nH]1)CC2 (stereo in doubt; 52a) ? Thanks!
3.4

----------
# method description: AUC in po dosed rat
# Format: ADME, organism-based
# study conditions: plasma
endpoint: AUC (µM·h)
Answer with a number only, understood to be in µM·h.

- compound: "O=C1N(c2ccc(F)c(Cl)c2)C(c2ccccn2)C12CCN(c1nc3ccc(Cl)cc3[nH]1)CC2 (configuration not stated)"
  unit of measurement: "µM·h"
  AUC: 41.2

Please turn your attention to the following entry.
Could you please provide reported AUC for O=C1N(c2ccc(F)c(Cl)c2)C(c2ccccn2)C12CCN(c1nc3cc(F)c(C(F)(F)F)cc3[nH]1)CC2 (stereo in doubt; 52a) ? Thanks!
0.814

----------
# tgt: Voltage-dependent T-type calcium channel subunit alpha-1H (Homo sapiens, UniProt O95180)
# Sequence (O95180 whole entry): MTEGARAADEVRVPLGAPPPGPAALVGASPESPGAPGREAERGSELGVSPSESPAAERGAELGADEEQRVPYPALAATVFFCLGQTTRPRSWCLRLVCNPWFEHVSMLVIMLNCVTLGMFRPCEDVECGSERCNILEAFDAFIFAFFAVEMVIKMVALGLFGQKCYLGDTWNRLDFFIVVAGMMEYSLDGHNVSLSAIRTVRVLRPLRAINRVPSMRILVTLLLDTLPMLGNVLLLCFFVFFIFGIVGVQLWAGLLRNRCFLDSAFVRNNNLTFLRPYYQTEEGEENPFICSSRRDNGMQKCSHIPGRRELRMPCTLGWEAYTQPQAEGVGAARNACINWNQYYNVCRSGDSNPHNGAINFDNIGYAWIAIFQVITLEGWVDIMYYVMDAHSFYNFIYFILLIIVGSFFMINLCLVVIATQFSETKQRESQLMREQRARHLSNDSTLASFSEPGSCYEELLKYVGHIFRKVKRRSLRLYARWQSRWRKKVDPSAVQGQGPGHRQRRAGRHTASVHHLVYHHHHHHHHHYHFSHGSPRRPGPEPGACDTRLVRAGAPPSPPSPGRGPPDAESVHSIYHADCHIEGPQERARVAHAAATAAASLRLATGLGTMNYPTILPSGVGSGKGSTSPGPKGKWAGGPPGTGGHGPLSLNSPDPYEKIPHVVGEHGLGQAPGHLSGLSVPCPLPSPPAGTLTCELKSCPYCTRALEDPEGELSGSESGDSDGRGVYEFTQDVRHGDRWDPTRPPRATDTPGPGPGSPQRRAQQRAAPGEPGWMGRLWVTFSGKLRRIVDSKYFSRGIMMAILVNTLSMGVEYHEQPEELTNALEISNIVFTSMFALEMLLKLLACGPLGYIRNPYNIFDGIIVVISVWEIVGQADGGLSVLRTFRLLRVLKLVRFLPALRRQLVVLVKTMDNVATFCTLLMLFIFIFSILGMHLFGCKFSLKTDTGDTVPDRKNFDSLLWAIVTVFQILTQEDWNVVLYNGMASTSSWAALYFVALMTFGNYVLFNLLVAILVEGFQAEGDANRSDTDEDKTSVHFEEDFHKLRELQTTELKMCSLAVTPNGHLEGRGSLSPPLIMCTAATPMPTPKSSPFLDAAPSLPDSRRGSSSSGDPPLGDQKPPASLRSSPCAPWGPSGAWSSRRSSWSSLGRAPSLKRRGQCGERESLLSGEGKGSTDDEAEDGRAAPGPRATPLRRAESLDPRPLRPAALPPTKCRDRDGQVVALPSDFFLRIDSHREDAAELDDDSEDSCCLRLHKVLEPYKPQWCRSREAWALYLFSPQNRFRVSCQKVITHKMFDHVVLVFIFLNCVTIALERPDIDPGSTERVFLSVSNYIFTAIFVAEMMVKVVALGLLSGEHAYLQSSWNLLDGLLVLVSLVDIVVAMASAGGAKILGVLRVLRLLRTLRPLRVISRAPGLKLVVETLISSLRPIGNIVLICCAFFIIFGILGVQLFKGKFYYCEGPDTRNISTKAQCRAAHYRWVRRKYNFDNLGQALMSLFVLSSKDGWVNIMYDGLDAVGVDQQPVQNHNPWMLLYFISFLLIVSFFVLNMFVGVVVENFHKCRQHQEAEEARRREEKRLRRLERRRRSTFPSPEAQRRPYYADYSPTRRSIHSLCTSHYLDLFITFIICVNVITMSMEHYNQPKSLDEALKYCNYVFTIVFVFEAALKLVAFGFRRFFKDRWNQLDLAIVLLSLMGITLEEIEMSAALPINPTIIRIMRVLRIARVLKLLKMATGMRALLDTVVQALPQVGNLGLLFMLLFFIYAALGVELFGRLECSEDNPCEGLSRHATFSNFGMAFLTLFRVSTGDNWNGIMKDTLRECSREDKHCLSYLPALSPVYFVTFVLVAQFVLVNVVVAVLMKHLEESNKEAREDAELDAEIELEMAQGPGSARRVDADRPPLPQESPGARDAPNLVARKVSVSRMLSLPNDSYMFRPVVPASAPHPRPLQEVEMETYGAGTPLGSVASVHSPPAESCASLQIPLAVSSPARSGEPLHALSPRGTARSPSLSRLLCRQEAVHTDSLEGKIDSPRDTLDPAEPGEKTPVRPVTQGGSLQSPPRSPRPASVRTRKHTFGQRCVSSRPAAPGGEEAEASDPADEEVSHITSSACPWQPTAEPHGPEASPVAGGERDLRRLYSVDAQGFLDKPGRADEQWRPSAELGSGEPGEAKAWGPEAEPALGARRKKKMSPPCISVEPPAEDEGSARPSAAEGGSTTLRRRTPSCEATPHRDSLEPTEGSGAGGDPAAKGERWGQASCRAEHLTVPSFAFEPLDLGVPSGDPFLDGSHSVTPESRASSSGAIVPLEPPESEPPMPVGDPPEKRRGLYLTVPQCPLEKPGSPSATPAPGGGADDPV
# method description: Inhibition of human CaV3.2 expressed in HEK293 cells at -100 mV membrane potential by whole cell path clamp method
# Format: cell-based
endpoint: IC50 (nM)
Answer with a number only, understood to be in nM.

Example cases with answers are listed next.
- compound: "O=C(Nc1cccc(C(F)(F)F)c1)N1CCC2(CC1)C(=O)N(c1ccc(F)c(F)c1)C2c1ccccn1 (stereo in doubt; 411b)"
  tgt: "Voltage-dependent T-type calcium channel subunit alpha-1H (Homo sapiens, UniProt O95180)"
  unit of measurement: "nM"
  IC50: 283
- compound: "CC[C@H](C)[C@H](NC(=O)N1CCC2(CC1)C(=O)N(c1cccc(F)c1)C2c1ccc(Cl)cc1)C(=O)OC#N (some centres undefined)"
  tgt: "Voltage-dependent T-type calcium channel subunit alpha-1H (Homo sapiens, UniProt O95180)"
  unit of measurement: "nM"
  IC50: 17000
- compound: "O=C(Nc1cc(F)cc(F)c1)N1CCC2(CC1)C(=O)N(c1ccc(F)c(Cl)c1)C2c1ccccn1 (stereo in doubt; 39a)"
  tgt: "Voltage-dependent T-type calcium channel subunit alpha-1H (Homo sapiens, UniProt O95180)"
  unit of measurement: "nM"
  IC50: 42

Please turn your attention to the following entry.
Could you please provide reported IC50 for CC[C@H](C)[C@H](NC(=O)N1CCC2(CC1)CN(C(C)C)C2c1ccc(Cl)cc1)C(=O)OC (stereo in doubt; 2) ? Thanks!
123

----------
# method description: Permeability across human Caco-2 cells
# Format: ADME, cell-based
# study conditions: read-out: permeability
endpoint: Papp (×10⁻⁶ cm/s)
Answer with a number only, understood to be in ×10⁻⁶ cm/s.

- compound: "CC[C@H](C)[C@H](NC(=O)N1CCC2(CC1)CN(C(C)C)C2c1ccc(Cl)cc1)C(=O)OC (stereo in doubt; 2)"
  unit of measurement: "×10⁻⁶ cm/s"
  Papp: 13.4

Please turn your attention to the following entry.
Could you please provide reported Papp for CC(C)N1CC2(CCN(C(=O)Nc3ccc(F)c(F)c3)CC2)C1c1ccc(Cl)cc1 (stereo not drawn) ? Thanks!
18.7

----------
# Organism: Homo sapiens
# method description: Protein binding in human plasma
# study conditions: read-out: PPB (converted)
Listing of entries alongside the reported fraction unbound.
Output: the number by itself.

Example cases with answers are listed next.
- compound: "O=C(Nc1ccc(F)c(F)c1)N1CCC2(CC1)C(=O)N(c1cccc(Cl)c1)C2c1ccccn1 (stereo in doubt; 42a)"
  fraction unbound: 0.001
- compound: "N#Cc1cccc(NC(=O)N2CCC3(CC2)C(=O)N(c2cccc(Cl)c2)C3c2ccccn2)c1 (stereo in doubt; 43a)"
  fraction unbound: 0.013
- compound: "O=C(Nc1cc(F)cc(F)c1)N1CCC2(CC1)C(=O)N(c1ccc(F)c(Cl)c1)C2c1ccccn1 (stereo in doubt; 39a)"
  fraction unbound: 0.001

Could you please provide reported fraction unbound for O=C(Nc1cc(F)cc(F)c1)N1CCC2(CC1)C(=O)N(c1cccc(Cl)c1)C2c1ccccn1 (stereo in doubt; 44a) ? Thanks!
0.003

----------
# System: Rattus norvegicus
# method description: Plasma concentration in SNL rat at 10 mg/kg, po
# Type: ADME, organism-based
# Parameters: dose 10 mg/kg, route oral
# study conditions: in vivo
endpoint: concentration (nM)
Answer with a number only, understood to be in nM.

Could you please provide reported concentration for O=C(Nc1cccc(C(F)(F)F)c1)N1CCC2(CC1)C(=O)N(c1ccc(F)c(F)c1)C2c1ccccn1 (stereo in doubt; 411b) ? Thanks!
2100

----------
pIC50: −log10 of the molar value.
// values below are pIC50; system is UniProt:P08684
Sequence (P08684 whole entry): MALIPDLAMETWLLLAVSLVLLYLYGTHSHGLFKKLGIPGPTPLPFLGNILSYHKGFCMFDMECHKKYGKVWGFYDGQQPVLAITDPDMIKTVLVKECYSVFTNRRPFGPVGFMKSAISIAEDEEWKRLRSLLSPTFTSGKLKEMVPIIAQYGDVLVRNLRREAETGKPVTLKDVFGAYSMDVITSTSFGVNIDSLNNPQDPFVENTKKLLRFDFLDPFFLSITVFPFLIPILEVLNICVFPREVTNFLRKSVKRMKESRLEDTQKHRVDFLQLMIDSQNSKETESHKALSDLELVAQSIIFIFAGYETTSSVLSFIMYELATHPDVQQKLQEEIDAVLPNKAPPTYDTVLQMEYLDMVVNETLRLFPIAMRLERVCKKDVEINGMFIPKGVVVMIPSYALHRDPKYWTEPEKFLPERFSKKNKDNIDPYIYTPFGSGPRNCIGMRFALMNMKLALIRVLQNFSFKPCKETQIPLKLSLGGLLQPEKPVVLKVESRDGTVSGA

- molecule: "CC(C)N1CC2(CCN(C(=O)Nc3ccc(F)c(F)c3)CC2)C1c1ccc(Cl)cc1 (stereo not drawn)"
  tgt: "UniProt:P08684"
  pIC50: "< 4.52"
- molecule: "CC[C@H](C)[C@H](NC(=O)N1CCC2(CC1)CN(C(C)C)C2c1ccc(Cl)cc1)C(=O)OC (stereo in doubt; 2)"
  tgt: "UniProt:P08684"
  pIC50: "< 4.52"

Please turn your attention to the following entry.
State pIC50 on UniProt:P08684. Entry: CC(C)N1CC2(CCN(C(=O)Nc3cc(F)cc(F)c3)CC2)C1c1ccc(Cl)cc1 (stereo not drawn)
< 4.52

----------
# tgt: Voltage-dependent T-type calcium channel subunit alpha-1H (Homo sapiens, UniProt O95180)
# method description: Inhibition of human CaV3.2 expressed in HEK293 cells at -100 mV membrane potential by Ionworks HT assay
# Format: cell-based
Listing of entries alongside the reported pIC50.
Please express pIC50 as -log10 of the molar concentration.

Example cases with answers are listed next.
- molecule: "O=C(Nc1cc(F)cc(F)c1)N1CCC2(CC1)C(=O)N(c1ccc(F)c(Cl)c1)C2c1ccccn1 (stereo in doubt; 39b)"
  pIC50: 6.75
- molecule: "O=C(Nc1cc(F)cc(F)c1)N1CCC2(CC1)C(=O)N(c1cccc(Cl)c1)C2c1ccccn1 (stereo in doubt; 44a)"
  pIC50: 7.74
- molecule: "CN1CC2(CCN(C(=O)Nc3cc(F)cc(F)c3)CC2)C1c1ccc(Cl)cc1 (racemic)"
  pIC50: 6.67

Please turn your attention to the following entry.
Could you please provide reported pIC50 for O=C1N(c2ccc(F)c(Cl)c2)C(c2ccccn2)C12CCN(c1nc3cc(F)c(Cl)cc3[nH]1)CC2 (centres undefined) ? Thanks!
7.22

----------
# tgt: Voltage-dependent T-type calcium channel subunit alpha-1H (Homo sapiens)
# method description: Inhibition of human CaV3.2 expressed in HEK293 cells at -100 mV membrane potential by Ionworks HT assay
# Format: cell-based
Listing of entries alongside the reported pIC50.
Please express pIC50 as -log10 of the molar concentration.

Example cases with answers are listed next.
- compound: "O=C1N(c2ccc(F)c(Cl)c2)C(c2ccccn2)C12CCN(c1nc3cc(F)c(C(F)(F)F)cc3[nH]1)CC2 (stereo in doubt; 52a)"
  pIC50: 7.54
- compound: "CC(C)N1CC2(CCN(C(=O)Nc3ccc(F)c(F)c3)CC2)C1c1ccc(Cl)cc1 (stereo not given)"
  pIC50: 6.76
- compound: "O=C(Nc1ccc(F)c(F)c1)N1CCC2(CC1)C(=O)N(c1ccc(F)c(Cl)c1)C2c1ccccn1 (stereo in doubt; 40a)"
  pIC50: 7.39

State pIC50 on Voltage-dependent T-type calcium channel subunit alpha-1H (Homo sapiens). Entry: CC[C@H](C)[C@H](NC(=O)N1CCC2(CC1)CN(c1cccc(F)c1)C2c1ccc(Cl)cc1)C(=O)OC (stereo in doubt; 22a)
6.84

State pIC50 on Voltage-dependent T-type calcium channel subunit alpha-1H (Homo sapiens). Entry: N#Cc1cccc(N2C(=O)C3(CCN(C(=O)Nc4cc(F)cc(F)c4)CC3)C2c2ccccn2)c1 (racemic)
5.62

----------
# tgt: Transient receptor potential cation channel subfamily V member 1 (Homo sapiens)
# method description: Inhibition of TRPV1 expressed in HEK293 assessed as capsaicin activation cells at 3.3 ug/mL by FLIPR assay
# Assay type: cell-based
endpoint: inhibition (%)
Answer with a number only, understood to be in %.

- compound: "O=C1N(c2ccc(F)c(Cl)c2)C(c2ccccn2)C12CCN(c1nc3cc(F)c(Cl)cc3[nH]1)CC2 (stereo not given)"
  unit of measurement: "%"
  inhibition: 8.6
- compound: "CC[C@H](C)[C@H](NC(=O)N1CCC2(CC1)C(=O)N(c1cccc(F)c1)C2c1ccc(Cl)cc1)C(=O)NC (stereo not given in full)"
  unit of measurement: "%"
  inhibition: 4.8
- compound: "CN1CC2(CCN(C(=O)Nc3cc(F)cc(F)c3)CC2)C1c1ccc(Cl)cc1 (racemic)"
  unit of measurement: "%"
  inhibition: 25

State inhibition on Transient receptor potential cation channel subfamily V member 1 (Homo sapiens). Entry: O=C(Nc1cc(F)cc(F)c1)N1CCC2(CC1)C(=O)N(c1cccc(Cl)c1)C2c1ccccn1 (stereo in doubt; 44b)
36

State inhibition on Transient receptor potential cation channel subfamily V member 1 (Homo sapiens). Entry: O=C(Nc1cc(F)cc(F)c1)N1CCC2(CC1)C(=O)N(c1cccc(Cl)c1)C2c1ccccn1 (stereo in doubt; 44a)
38

State inhibition on Transient receptor potential cation channel subfamily V member 1 (Homo sapiens). Entry: O=C(Nc1ccc(F)c(F)c1)N1CCC2(CC1)C(=O)N(c1ccc(F)c(Cl)c1)C2c1ccccn1 (stereo in doubt; 40a)
48

State inhibition on Transient receptor potential cation channel subfamily V member 1 (Homo sapiens). Entry: O=C1N(c2ccc(F)c(Cl)c2)C(c2ccccn2)C12CCN(c1nc3cc(F)c(C(F)(F)F)cc3[nH]1)CC2 (stereo in doubt; 52a)
92

State inhibition on Transient receptor potential cation channel subfamily V member 1 (Homo sapiens). Entry: O=C(Nc1cc(F)cc(F)c1)N1CCC2(CC1)C(=O)N(C1CC1)C2c1ccc(Cl)cc1 (racemic)
34.2

State inhibition on Transient receptor potential cation channel subfamily V member 1 (Homo sapiens). Entry: CC[C@H](C)[C@H](NC(=O)N1CCC2(CC1)CN(c1cccc(F)c1)C2c1ccc(Cl)cc1)C(=O)OC (stereo in doubt; 22a)
8.5

State inhibition on Transient receptor potential cation channel subfamily V member 1 (Homo sapiens). Entry: N#Cc1cccc(NC(=O)N2CCC3(CC2)C(=O)N(c2cccc(Cl)c2)C3c2ccccn2)c1 (stereo in doubt; 43b)
25

Provenance of the data: ChEMBL document CHEMBL1208707
